Every entry's value here was drawn from patent US7056679.

# experimental_system: T1, antibody raised against ETAG
# T1 construct: read-out of display; also called E-tag antibody; E tag antibody
# test_name: phage ELISA, 405 nm; anti-E-tag antibody coated
experimental_readout: ETAG (OD)

[
  {
    "binder": "LTPYSLARSWLSGRPSTGATAAAGAPVPYPDPLEPRP (not shown: phage gene III coat protein (pCANTAB5E)) [DGI-2-20F-3-C12]",
    "experimental_readout": "ETAG (OD)",
    "units_text": "OD",
    "experimental_result": 15.1
  },
  {
    "binder": "DGI-2-40F-3-C7 (not shown: phage gene III coat protein (pCANTAB5E)) peptide: HPWVTNMLVFQRPPPPGFWLSDTTPRQRNGLGQVERPSVDAAAGAPVPYPDPLEPRP",
    "experimental_readout": "ETAG (OD)",
    "units_text": "OD",
    "experimental_result": 8.8
  },
  {
    "binder": "DGI-2-40F-3-B4 (not shown: phage gene III coat protein (pCANTAB5E)) peptide: LWLPCGLLVRPAQFYFYFSPLRHFLSSSVGSLSFPLSLLVAAAGAPVPYPDPLEPRP",
    "experimental_readout": "ETAG (OD)",
    "units_text": "OD",
    "experimental_result": 1.5
  },
  {
    "binder": "LTWGPQFGSLQVYSRHRGLPAAAGAPVPYPDPLEPRP (not shown: phage gene III coat protein (pCANTAB5E)) [DGI-2-20R-4-E4]",
    "experimental_readout": "ETAG (OD)",
    "units_text": "OD",
    "experimental_result": 18.1
  }
]
